Value source: patent US20260242478A1

This section presents binders with their documented Anti-CD28 Fab signal in the presence of CD28 values.
SUBJECT OF TEST: anti-CD28 Fab (SEQ ID NOs: 696, 697)
Sequence (VH, as listed by the source, chain 1 of 2): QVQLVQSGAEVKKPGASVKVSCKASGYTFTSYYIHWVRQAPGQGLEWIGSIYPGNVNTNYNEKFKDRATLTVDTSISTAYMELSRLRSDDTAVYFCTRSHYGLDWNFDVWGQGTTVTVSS
Sequence (VL, as listed by the source, chain 2 of 2): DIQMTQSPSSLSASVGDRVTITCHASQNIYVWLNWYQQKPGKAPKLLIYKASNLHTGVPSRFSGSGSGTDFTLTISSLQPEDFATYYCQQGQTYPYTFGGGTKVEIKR
EXPERIMENT NOTES: phage binding ELISA; Fab on plate pre-incubated with CD28 antigen as competitor, anti-M13 HRP detection;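 further: crude clonal phage supernatants screened by ELISA, with comparison wells pre-incubated in blocking buffer only, lacking CD28 antigen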
Lab note: record the figure alone, no unit after it.

| BINDER | NUMERIC READOUT |
| --- | --- |
| YCEGHLPVYMWKCL (tested as crude phage supernatant) [Phage-619] | 0.09 |
| YCDGHSAEYMWKCL (tested as crude phage supernatant) [Phage-629] | 0.08 |
| YCDGHMPEYMWKCL (tested as crude phage supernatant) [Phage-620] | 0.09 |
| YCDGHLPEYMWKCI (tested as crude phage supernatant) [Phage-628] | 0.07 |

Next item in the queue.
(Q) Which Anti-CD28 Fab signal in the presence of CD28 value belongs to YCAGHAPEYMQKCL (tested as crude phage supernatant) [Phage-624] ?
(A) 0.07
